Data credit: PubChem BioAssay (NCATS)

- test-description: qHTS Screen of the MIPE 4.0 Collection Against Ewings Sarcoma (RDES) (AID 1259252); further: nearly all actives have a fitted effect of over 35% in size
- condition-description: RD-ES Ewing sarcoma viability, CellTiter-Glo, 48 h; series mostly up to 45.8 µM
Inconclusive results are not listed. The source made the active and inactive calls. The call rests on the fitted dose curve; in most records, active means well fitted inhibition curve with a large enough effect; inconclusive means small, poorly fitted or top-dose-only effect; inactive means no such curve, though single readings can be large or run the other way.
Outcomes: active, inactive

O=C(NOCC1CC1)c1ccc(F)c(F)c1Nc1ccc(I)cc1Cl :: active
N[C@@H](Cc1cc(I)c(Oc2cc(I)c(O)c(I)c2)c(I)c1)C(=O)O :: inactive
CCN(CC)CCOc1ccc(Nc2ncc3cc(-c4c(Cl)cccc4Cl)c(=O)n(C)c3n2)cc1 :: active
CN1C(C(=O)Nc2ccccn2)=C(O)c2sccc2S1(=O)=O :: active
